Origin of the recorded values: patent US7935702B2

- experimental_system: human capsaicin receptor (Homo sapiens)
- Construct: expressed in transfected cells
- Sequence (Q8NER1 whole entry): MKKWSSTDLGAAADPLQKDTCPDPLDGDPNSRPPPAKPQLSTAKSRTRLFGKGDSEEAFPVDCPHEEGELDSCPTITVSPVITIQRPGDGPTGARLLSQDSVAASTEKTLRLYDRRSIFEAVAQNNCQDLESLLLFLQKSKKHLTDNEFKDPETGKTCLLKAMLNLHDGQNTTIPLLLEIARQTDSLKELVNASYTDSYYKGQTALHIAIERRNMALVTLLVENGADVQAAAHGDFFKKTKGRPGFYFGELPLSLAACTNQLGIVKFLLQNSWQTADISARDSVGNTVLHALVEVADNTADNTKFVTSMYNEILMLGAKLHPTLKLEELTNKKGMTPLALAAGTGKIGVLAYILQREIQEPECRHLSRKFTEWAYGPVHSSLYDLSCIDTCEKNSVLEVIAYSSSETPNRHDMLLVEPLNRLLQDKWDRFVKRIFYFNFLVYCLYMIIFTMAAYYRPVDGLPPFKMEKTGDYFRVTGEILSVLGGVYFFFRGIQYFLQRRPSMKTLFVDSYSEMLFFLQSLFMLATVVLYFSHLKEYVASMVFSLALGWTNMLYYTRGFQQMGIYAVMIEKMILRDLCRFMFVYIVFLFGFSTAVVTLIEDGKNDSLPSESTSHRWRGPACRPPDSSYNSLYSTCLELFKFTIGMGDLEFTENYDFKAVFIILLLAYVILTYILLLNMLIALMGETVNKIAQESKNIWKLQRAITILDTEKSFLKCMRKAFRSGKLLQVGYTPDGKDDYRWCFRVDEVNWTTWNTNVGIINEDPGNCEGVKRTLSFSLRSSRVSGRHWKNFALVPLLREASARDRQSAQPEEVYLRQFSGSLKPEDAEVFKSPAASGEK
- protocol_description: Calcium mobilization assay, determination of antagonist activity (Example 6)
- Format: cell-based
- measurement_setup: Table I; IC50 determined as described in Example 6; read-out: IC50
pIC50: −log10 of the molar value.
quantity_measured: pIC50

Solved entries (count: 3):
CCCCN(CC)c1cc(C(F)(F)F)c(-c2cnc3c(Nc4ccc(C(F)(F)F)cn4)ccnc3n2)nn1 = > 6.00
CN(C)CC1CCCCN1c1cc(C(F)(F)F)c(-c2cnc3c(Nc4ccc(C(F)(F)F)cn4)ccnc3n2)nn1 (stereo not shown) = > 6.00
CCOc1nc(Nc2ccnc3nc(-c4ccc(C(=O)O)cc4C(F)(F)F)cnc23)ccc1C(F)(F)F = > 6.00

From here, focus on the item given below.
Indicate its recorded pIC50; the compound in question is N#Cc1ccc(-c2cnc3c(Nc4ccc(C(F)(F)F)cn4)ccnc3n2)c(C(F)(F)F)c1
> 6.00

----------
pIC50 overview
- experimental_system: human capsaicin receptor (Homo sapiens)
- Construct: expressed in transfected cells
- protocol_description: Calcium mobilization assay, determination of antagonist activity (Example 6)
- Assay type: cell-based
- measurement_setup: Table I; IC50 determined as described in Example 6; read-out: IC50
- Source text: A cDNA encoding full length human capsaicin receptor (SEQ ID NO:1, 2 or 3 of U.S. Pat. No. 6,482,611) is subcloned in the plasmid pBK-CMV (Stratagene, La Jolla, Calif.) for recombinant expression in mammalian cells. […] To measure the ability of a test compound to agonize or antagonize a calcium mobilization response in cells expressing capsaicin receptors to capsaicin or other vanilloid agonist, the EC50 of the agonist capsaicin is first determined. […]
pIC50: −log10 of the molar value.

Solved entries (count: 5):
C=CCN(C)c1cc(C(F)(F)F)c(-c2cnc3c(Nc4ccc(C(F)(F)F)cn4)ccnc3n2)nn1 = > 6.00
CC(C)N(CCNc1cc(C(F)(F)F)c(-c2cnc3c(Nc4ccc(C(F)(F)F)cn4)ccnc3n2)nn1)C(C)C = > 6.00
Cc1ccc(C(F)(F)F)c(-c2ccc3c(Nc4ccc(C(F)(F)F)cn4)ccnc3n2)n1 = > 6.00
CCN(CC)CCCCNc1cc(C(F)(F)F)c(-c2cnc3c(Nc4ccc(C(F)(F)F)cn4)ccnc3n2)nn1 = > 6.00
CCCN(CC1CC1)C1CCN(c2cc(C(F)(F)F)c(-c3cnc4c(Nc5ccc(C(F)(F)F)cn5)ccnc4n3)nn2)CC1 = > 6.00

Provide pIC50, recorded with human capsaicin receptor (Homo sapiens), of FC(F)(F)c1ccc(Nc2ccnc3nc(-c4ncc(Br)cc4C(F)(F)F)cnc23)nc1
> 6.00

Provide pIC50, recorded with human capsaicin receptor (Homo sapiens), of OC1CN(c2cc(C(F)(F)F)c(-c3cnc4c(Nc5ccc(C(F)(F)F)cn5)ccnc4n3)nn2)C1
> 6.00

Provide pIC50, recorded with human capsaicin receptor (Homo sapiens), of CC(C)N1CCN(c2cc(C(F)(F)F)c(-c3cnc4c(Nc5ccc(C(F)(F)F)cn5)ccnc4n3)nn2)CC1
> 6.00

Provide pIC50, recorded with human capsaicin receptor (Homo sapiens), of CCCCN(C)CCNc1cc(C(F)(F)F)c(-c2cnc3c(Nc4ccc(C(F)(F)F)cn4)ccnc3n2)nn1
> 6.00

Provide pIC50, recorded with human capsaicin receptor (Homo sapiens), of CCN(CC)C1CCN(c2cc(C(F)(F)F)c(-c3cnc4c(Nc5ccc(C(F)(F)F)cn5)ccnc4n3)nn2)CC1
> 6.00
